# Tested on: A549 cells induced by TGF-β1 (lung fibrosis model)
# protocol summary: Hydroxyproline content in TGF-β1-induced A549 pulmonary fibrosis cell model
# Format: cell-based, human
# condition set: 4 uM, 48 hours
quantity name: Hydroxyproline Content Inhibition Rate in the Pulmonary Fibrosis Model
Respond with the figure and its unit, in that order.

Recorded Hydroxyproline Content Inhibition Rate in the Pulmonary Fibrosis Model, per entry:
substance	target under test	result value
Arg-Gly-Asp-Gly-Gly-Gly-Gly-Ile-Val-Arg-Arg-Ala-Asp-Arg-Ala-Ala-Val-Pro-Gly-Gly-Gly-Gly-Pro-(D-Pyr)-(D-Cys)-Bip-Arg-Gly-Glu [Polypeptide IV]	A549 cells induced by TGF-β1 (lung fibrosis model)	33.09%
Pro-(D-Pyr)-(D-Cys)-Bip-Arg-Gly-Glu-Gly-Gly-Gly-Gly-Ile-Val-Arg-Arg-Ala-Asp-Arg-Ala-Ala-Val-Pro-Gly-Gly-Gly-Gly-Arg-Gly-Asp [Polypeptide I]	A549 cells induced by TGF-β1 (lung fibrosis model)	36.50%
Pro-(D-Pyr)-(D-Cys)-Bip-Arg-Gly-Glu-Gly-Gly-Gly-Gly-Arg-Gly-Asp-Gly-Gly-Gly-Gly-Ile-Val-Arg-Arg-Ala-Asp-Arg-Ala-Ala-Val-Pro [Polypeptide VI]	A549 cells induced by TGF-β1 (lung fibrosis model)	29.55%

# input Fill in the blank: the reported Hydroxyproline Content Inhibition Rate in the Pulmonary Fibrosis Model of Arg-Gly-Asp-Gly-Gly-Gly-Gly-Pro-(D-Pyr)-(D-Cys)-Bip-Arg-Gly-Glu-Gly-Gly-Gly-Gly-Ile-Val-Arg-Arg-Ala-Asp-Arg-Ala-Ala-Val-Pro [Polypeptide III] is ____.
# output 30.66%

# input Fill in the blank: the reported Hydroxyproline Content Inhibition Rate in the Pulmonary Fibrosis Model of Ile-Val-Arg-Arg-Ala-Asp-Arg-Ala-Ala-Val-Pro-Gly-Gly-Gly-Gly-Arg-Gly-Asp-Gly-Gly-Gly-Gly-Pro-(D-Pyr)-(D-Cys)-Bip-Arg-Gly-Glu [Polypeptide V] is ____.
# output 34.47%

# input Fill in the blank: the reported Hydroxyproline Content Inhibition Rate in the Pulmonary Fibrosis Model of Ile-Val-Arg-Arg-Ala-Asp-Arg-Ala-Ala-Val-Pro-Gly-Gly-Gly-Gly-Pro-(D-Pyr)-(D-Cys)-Bip-Arg-Gly-Glu-Gly-Gly-Gly-Gly-Arg-Gly-Asp [Polypeptide II] is ____.
# output 31.28%

These measurements were taken from patent US20190031717A1.
